Numbers sourced from paper PMC5540273.

System: ZAP70
Conditions: concentration: 1 μM, replicates: in singlicate; n = 1;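 note: KINOMEscan kinase panel screen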
# Lookup of reported %Inh keyed by entry
Measure Name: %Inh (%)

INSERT INTO measurements (compound, measure_name, value_reported) VALUES
  ('COc1cccc(C2=C(Nc3ccc(Cl)c(C(=O)O)c3)C(=O)NC2=O)c1', '%Inh', 5),
  ('Cc1ccc(C(=O)Nc2ccc(Nc3ccnc4cc(-c5nccs5)ccc34)cc2O)cc1.Cl', '%Inh', 33),
  ('COc1ccc(-c2coc3ccc(-c4nnc(SCc5ccc(OC)c(C(F)(F)F)c5)o4)cc23)cc1', '%Inh', 0),
  ('Oc1cc(Nc2ccnc3cc(I)ccc23)ccc1F', '%Inh', 0),
  ('Cc1ccc(F)c(C(=O)Nc2cccc(-c3nn4ccccc4c3-c3ccnc(Nc4cccc(F)c4)n3)c2)c1F', '%Inh', 0),
  ('COc1cc2c(cc1OCCN1CCNCC1)ncc1c3ccc(C#N)cc3[nH]c21', '%Inh', 28),
  ('COc1cc(Nc2nccc(N3CCC(NC(=O)Nc4cccc(C(C)=O)c4)C3)n2)cc(OC)c1OC (centres unmarked)', '%Inh', 12),
  ('O=C(NC1CCN(c2ccnc(Nc3ccc(F)cc3)n2)C1)c1cc2ccccc2s1 (centres unmarked)', '%Inh', 0);

* * *

Tested on: MERTK
Conditions: concentration: 1 μM, replicates: in singlicate; n = 1
Measure Name: %Inh (%)

INSERT INTO results (chemical_smiles, value_reported) VALUES
  ('CN1CCN(CCCNc2nccc(-c3c(-c4ccc(F)cc4)nn4cc(C(F)(F)F)ccc34)n2)CC1', 26),
  ('Cc1ccc(F)c(C(=O)Nc2cccc(-c3nn4ccccc4c3-c3ccnc(Nc4cccc(F)c4)n3)c2)c1F', 75),
  ('COc1cc(Nc2nccc(-c3c(-c4cccc(NC(=O)c5c(F)cccc5F)c4)nn4ncccc34)n2)cc(OC)c1OC', 90.2),
  ('C[C@@H](Oc1cc(-n2cnc3cc(-c4ccnc(NCCS(C)(=O)=O)c4)ccc32)sc1C(N)=O)c1ccccc1Cl', 90.9);

* * *

# Lookup of reported %Inh keyed by entry
Test system: KIT
Conditions: concentration: 1 μM, replicates: in singlicate; n = 1
Measure Name: %Inh

INSERT INTO results (molecule, measure_name, value_reported) VALUES
  ('COc1cc(Nc2nccc(N3CCC(NC(=O)Nc4cccc(C(C)=O)c4)C3)n2)cc(OC)c1OC (centres unmarked)', '%Inh', '86%'),
  ('COc1cc(Nc2nccc(-c3c(-c4cccc(NC(=O)c5c(F)cccc5F)c4)nn4ncccc34)n2)cc(OC)c1OC', '%Inh', '100%'),
  ('c1ccc(Oc2ccc(Nc3ccnc4cc(-c5ccc(CNCCN6CCOCC6)o5)ccc34)cc2)nc1', '%Inh', '79%'),
  ('CN1CCN(CCCNc2nccc(-c3c(-c4ccc(F)cc4)nn4cc(C(F)(F)F)ccc34)n2)CC1', '%Inh', '7%'),
  ('Cn1cc(-c2ccc3c(c2)CCN3C(=O)Cc2cccc(F)c2)c2c(N)ncnc21', '%Inh', '100%'),
  ('CN(c1ccc(NC(=O)Nc2cc(C(F)(F)F)ccc2F)cc1)c1ccnc(Nc2ccc(S(N)(=O)=O)cc2)n1', '%Inh', '99.5%'),
  ('CCS(=O)(=O)c1ccc(OC)c(Nc2nccc(-c3c(-c4cccc(NC(=O)c5c(F)cccc5F)c4)nn4ncccc34)n2)c1', '%Inh', '32%'),
  ('O=C(NC1CCN(c2ccnc(Nc3ccc(F)cc3)n2)C1)c1cc2ccccc2s1 (centres unmarked)', '%Inh', '21%'),
  ('COc1ccc(Nc2nccc(NCCNC(=O)c3cc4ccccc4s3)n2)cc1', '%Inh', '5%'),
  ('Nc1ncc(-c2ccc3nccc(-c4ccncc4)c3c2)cc1S(=O)(=O)N1CCOCC1', '%Inh', '16%'),
  ('C[C@@H](Oc1cc(-n2cnc3cc(-c4ccnc(NCCS(C)(=O)=O)c4)ccc32)sc1C(N)=O)c1ccccc1Cl', '%Inh', '80%'),
  ('NCCCC(NC(=O)c1cc(Br)c(-c2ccnc3[nH]ccc23)s1)c1ccccc1.O=C(O)C(F)(F)F.O=C(O)C(F)(F)F (centres unmarked)', '%Inh', '22%'),
  ('COC(=O)Nc1nc2cc(Oc3ccc(NC(=O)Nc4cc(C(F)(F)F)ccc4F)cn3)ccc2[nH]1.Cl.Cl', '%Inh', '100%'),
  ('Cc1occc1-c1ncc(OC[C@@H](N)Cc2c[nH]c3ccccc23)cc1-c1ccc2[nH]nc(C)c2c1.O=C(O)C(F)(F)F', '%Inh', '21%'),
  ('CC(C)(C)c1ccc2nccc(Nc3cccc(O)c3)c2c1', '%Inh', '26%'),
  ('CC(=O)Nc1nc2cnc(Nc3cc(NC(=O)c4cccc(C5(C#N)CC5)c4Cl)ccc3C)nc2s1', '%Inh', '99.8%'),
  ('O=C(Nc1cccc(-c2nn3ccccc3c2-c2ccnc(Nc3cccc(F)c3)n2)c1)c1c(F)ccc(F)c1Cl', '%Inh', '98.2%'),
  ('COc1cc(Nc2nccc(-c3c(-c4cccc(NC(=O)c5c(F)cccc5F)c4)nn4ccccc34)n2)cc(OC)c1OC', '%Inh', '100%'),
  ('COc1cccc(C2=C(Nc3ccc(Cl)c(C(=O)O)c3)C(=O)NC2=O)c1', '%Inh', '6%'),
  ('O=C(Nc1cccc(-c2nn3ccccc3c2-c2ccnc(Nc3cccc(C(F)(F)F)c3)n2)c1)c1c(F)cccc1F', '%Inh', '94.6%'),
  ('FC(F)(F)c1ccc(/C=C/c2cncnc2Nc2ccc3[nH]c(Cc4ccccc4)nc3c2)cc1', '%Inh', '0%'),
  ('Nc1n[nH]c2cnc(-c3ccccc3)cc12', '%Inh', '0%'),
  ('CNC(=O)c1ccccc1Nc1nc(Nc2ccc(N3CCOCC3)cc2)ncc1Cl.Cl', '%Inh', '92.4%'),
  ('CCn1c(-c2nonc2N)nc2c(C#CC(C)(C)O)ncc(OCCCCN)c21.O=C(O)C(F)(F)F.O=C(O)C(F)(F)F', '%Inh', '17%'),
  ('CCCCc1nn2ncccc2c1-c1ccnc(Nc2ccc(N3CCN(C)CC3)cc2)n1', '%Inh', '100%'),
  ('COCCOCCOc1cc2ncc3c4ccc(C#N)cc4[nH]c3c2cc1OC', '%Inh', '73%');

* * *

# Lookup of reported %Inh keyed by entry
Tested on: LCK
Conditions: concentration: 1 μM, replicates: in singlicate; n = 1
Measure Name: %Inh (%)

INSERT INTO assay_data (compound, display_unit, value_reported) VALUES
  ('COc1cccc(-c2ccc3c(NC(=O)C4CC4)n[nH]c3n2)c1 [SB-710903]', '%', 23),
  ('Fc1ccc(-c2ncn(C3CCNCC3)c2-c2ccnc(Oc3ccc(-c4ccccc4)cc3)n2)cc1 [SB-245391]', '%', 0),
  ('Cc1cccc(NC(=O)Nc2ccc(Oc3ncnc4ccn(C)c34)cc2)c1', '%', 0),
  ('CC(=O)Nc1nc2cnc(Nc3cc(NC(=O)c4cccc(C5(C#N)CC5)c4Cl)ccc3C)nc2s1', '%', 91.1),
  ('O=C(Nc1n[nH]c2cc(-c3ccoc3)ccc12)C1CC1 [SB-738481]', '%', 0),
  ('CSc1cccc2c(-c3ccncn3)c(-c3ccc(F)cc3)nn12 [GW514786]', '%', 20),
  ('Cc1ccc(S(=O)(=O)Nc2ccc(Nc3nccc(Nc4cccc5[nH]ncc45)n3)cc2)cc1 [GSK581271]', '%', 39),
  ('C[C@@H](Oc1cc(-n2cnc3cc(-c4ccnc(NCCS(C)(=O)=O)c4)ccc32)sc1C(N)=O)c1ccccc1Cl [GSK907232]', '%', 67),
  ('FC(F)(F)c1ccc(/C=C/c2cncnc2Nc2ccc3[nH]c(Cc4ccccc4)nc3c2)cc1 [GW709199]', '%', 9),
  ('Cl.NC(=O)c1cccc(Nc2nccc(Nc3ccc(Oc4c(Cl)cccc4Cl)c(Cl)c3)n2)c1 [GW659009]', '%', 54),
  ('COc1cc(Nc2ncc3c(C)nc(-c4cc5ccccc5[nH]4)n3n2)cc(OC)c1OC [GW869516]', '%', 71),
  ('CN(C)Cc1ccc(-c2ccc3c(Nc4ccc(Oc5ccccn5)cc4)ccnc3c2)o1 [GW567148]', '%', 92.9),
  ('c1ccc(-c2n[nH]cc2Nc2ccnc3ccccc23)nc1 [GW694077]', '%', 0),
  ('CN(c1ccc(NC(=O)Nc2cc(C(F)(F)F)ccc2F)cc1)c1ccnc(Nc2ccc(S(N)(=O)=O)cc2)n1 [GW809893]', '%', 99.6),
  ('CN(C)S(=O)(=O)c1cc(-c2ccc3nccc(-c4cccc(S(N)(=O)=O)c4)c3c2)cnc1N [GSK1669921]', '%', 7),
  ('COc1cccc(NC(=O)NC2CCN(c3ccnc(Nc4cc(OC)c(OC)c(OC)c4)n3)C2)c1 (stereo not drawn) [GSK1379763]', '%', 14),
  ('CCn1c(-c2nonc2N)nc2c(C#CC(C)(C)O)nc(OC[C@H](N)c3ccccc3)cc21 [GSK943949]', '%', 1),
  ('Cc1ccc(C(=O)N2CC[C@@H](O)C2)cc1-n1c(C)cc(OCc2ccc(F)cc2F)c(Br)c1=O', '%', 99.4);
